Provenance of the data: patent US12331057B2

MEASUREMENT TARGET: NL20 human bronchial epithelial cells expressing human Z-AAT (Homo sapiens, UniProt P01009, E366K)
Sequence (P01009 25-418 E366K): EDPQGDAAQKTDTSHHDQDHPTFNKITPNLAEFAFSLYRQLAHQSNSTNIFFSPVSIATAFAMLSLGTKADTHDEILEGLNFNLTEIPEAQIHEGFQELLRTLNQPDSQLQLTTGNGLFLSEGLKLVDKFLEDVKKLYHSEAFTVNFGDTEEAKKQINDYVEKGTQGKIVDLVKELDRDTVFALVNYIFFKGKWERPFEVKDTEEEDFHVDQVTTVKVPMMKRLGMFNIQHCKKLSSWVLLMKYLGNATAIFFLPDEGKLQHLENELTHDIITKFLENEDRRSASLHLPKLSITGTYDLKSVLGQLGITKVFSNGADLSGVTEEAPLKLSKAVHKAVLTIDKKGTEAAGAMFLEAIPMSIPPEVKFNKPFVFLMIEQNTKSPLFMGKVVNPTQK
ASSAY EXPLANATION: AAT Function Assay (MSD Assay NL20-SI Cell Line)
CONDITION NOTES: functionally active AAT in supernatant of NL20 cells expressing human Z-AAT, MSD readout; read-out: NL20 Func. (EC50)
MEASURE NAME: EC50

// EC50 lookup, compound = COCC(C)(C)c1c(-c2ccc(C(=O)NCCNC(C)=O)cc2)c2cc3[nH]ncc3cc2n1-c1ccc(F)cc1 , result: > 1000 nM

// EC50 lookup, compound = COc1cc(-n2c(C(C)(C)CC#N)c(-c3cnc(P(C)(C)=O)c(C)c3)c3cc4[nH]ncc4cc32)ccc1F , result: < 400 nM

// EC50 lookup, compound = COCC(C)(C)c1c(-c2cnn(CCS(C)(=O)=O)c2)c2cc3[nH]ncc3cc2n1-c1ccc(F)cc1 , result: > 1000 nM

// EC50 lookup, compound = COCC(C)(C)c1c(-c2cn(CC(=O)O)nc2C)c2cc3[nH]ncc3cc2n1-c1ccc(F)cc1 , result: > 1000 nM

// EC50 lookup, compound = COCCOc1ccc(-c2c(C3CCOCC3)n(-c3ccc(F)cc3)c3cc4cn[nH]c4cc23)cn1 , result: 400 to 1000 nM

// EC50 lookup, compound = CC(C)(CC#N)c1c(-c2ccc(C(=O)O)cc2)c2cc3[nH]ncc3cc2n1Cc1cccnc1 , result: > 1000 nM

// EC50 lookup, compound = CC(C)(CC#N)c1c(-c2ccc(C(=O)O)cc2)c2cc3[nH]ncc3cc2n1Cc1c(F)cccc1F , result: > 1000 nM

// EC50 lookup, compound = CC(C)c1c(-c2ccc(C(=O)O)s2)c2cc3[nH]ncc3cc2n1-c1ccc(F)cc1 , result: < 400 nM

// EC50 lookup, compound = CC(C)(CC#N)c1c(-c2ccc(C(=O)O)cc2)c2cc3[nH]ncc3cc2n1Cc1ccc(F)cc1 , result: > 1000 nM

// EC50 lookup, compound = O=C(O)c1ccc(-c2c(C3(CO)CCC3)n(-c3ccc(F)cc3)c3cc4cn[nH]c4cc23)cc1 , result: > 1000 nM

// EC50 lookup, compound = COCC(C)(C)c1c(-c2cnn(C3COC3)c2)c2cc3[nH]ncc3cc2n1-c1ccc(F)cc1 , result: 400 to 1000 nM

// EC50 lookup, compound = CC(C)c1c(-c2ccc(C(=O)O)cc2C#N)c2cc3[nH]ncc3cc2n1-c1ccc(F)cc1 , result: < 400 nM

// EC50 lookup, compound = O=C(O)c1ccc(-c2c(C3(O)CCOCC3)n(-c3ccc(F)cc3)c3cc4cn[nH]c4cc23)cc1 , result: > 1000 nM

// EC50 lookup, compound = O=C(O)c1ccc(-c2c(C3CCOCC3)n(-c3ccc(F)c(F)c3)c3cc4cn[nH]c4cc23)c(F)c1 , result: < 400 nM

// EC50 lookup, compound = O=C(O)c1ccc(-c2c(C3CCOCC3)n(-c3ccccc3)c3cc4cn[nH]c4cc23)cc1 , result: < 400 nM

// EC50 lookup, compound = CC(C)c1c(-c2ccc(C(=O)O)cc2OC2COC2)c2cc3[nH]ncc3cc2n1-c1ccc(F)cc1 , result: < 400 nM

// EC50 lookup, compound = CC(C)c1c(-c2cc(C(=O)O)ccn2)c2cc3[nH]ncc3cc2n1-c1ccc(F)cc1 , result: > 1000 nM

// EC50 lookup, compound = COCC(C)(C)c1c(-c2ccc(C(=O)N[C@H]3C[C@@H](CO)NC3=O)cc2)c2cc3[nH]ncc3cc2n1-c1ccc(F)cc1 , result: > 1000 nM

// EC50 lookup, compound = COCC(C)(C)c1c(-c2ccc(S(C)(=O)=O)nc2)c2cc3[nH]ncc3cc2n1-c1ccc(F)cc1 , result: < 400 nM

// EC50 lookup, compound = CP(C)(=O)c1ccc(-c2c(C3CCOCC3)n(-c3ccc(F)cc3)c3cc4cn[nH]c4cc23)cc1 , result: > 1000 nM

// EC50 lookup, compound = O=C(O)c1cc(F)cc(-c2c(C3CCOCC3)n(-c3ccc(F)c(F)c3)c3cc4cn[nH]c4cc23)c1 , result: 400 to 1000 nM

// EC50 lookup, compound = COCC(C)(C)c1c(-c2ccc(C(=O)N[C@@H]3CCNC3=O)cc2)c2cc3[nH]ncc3cc2n1-c1ccc(F)cc1 , result: > 1000 nM

// EC50 lookup, compound = Cc1cc(-n2c(C3(CC#N)CCC3)c(-c3ccc(C(=O)O)cc3)c3cc4[nH]ncc4cc32)ccc1F , result: < 400 nM

// EC50 lookup, compound = Fc1ccc(-n2c(C3CCOCC3)c(-c3ccc(N4CCCC4)nc3)c3cc4[nH]ncc4cc32)cc1 , result: > 1000 nM

// EC50 lookup, compound = CC(c1ccccc1)n1c(C(C)(C)CC#N)c(-c2ccc(C(=O)O)cc2)c2cc3[nH]ncc3cc21 (racemic) , result: > 1000 nM

// EC50 lookup, compound = COc1cc(C(=O)O)ccc1-c1c(C(C)C)n(-c2ccc(F)cc2)c2cc3cn[nH]c3cc12 , result: < 400 nM

// EC50 lookup, compound = CC(C)(CC#N)c1c(-c2ccc(P(C)(C)=O)cc2)c2cc3[nH]ncc3cc2n1-c1ccc(F)cc1 , result: < 400 nM

// EC50 lookup, compound = CC(C)c1c(-c2ccc(C(=O)O)cc2)c2nc3[nH]ncc3nc2n1-c1ccc(F)cc1 , result: > 1000 nM

// EC50 lookup, compound = COCC(C)(C)c1c(-c2ccc(C(=O)N3CCCC(O)(CO)C3)cc2)c2cc3[nH]ncc3cc2n1-c1ccc(F)cc1 (centres unmarked) , result: > 1000 nM
